Values from patent US11332438B2

experiment: Prodrug cleavage in human brain homogenates (HBH): d3-Cr release and d3-Crn cyclization; type: in vitro ADME; conditions: 200 μM prodrug, 3 h; % of nominal input, negative control subtracted
PARAMETER MEASURED: Prodrug Cleavage Human BH net d3-Cr release (%)
Form entry: value (%) — number only.

[Q] Any idea what Prodrug Cleavage Human BH net d3-Cr release was measured for [2H]C([2H])([2H])N(CC(=O)[O-])C(=N)NC(=O)CCCCCCCCCCCCC.[Li+] [Compound 7] ?
[A] 50.8

[Q] Entry Cl.[2H]C([2H])([2H])N(CC(=O)OC(C)C)C(=N)NC(=O)CCCCCCCCCC [Compound 12-HCl] please
[A] 2.9

[Q] // repeat for Cl.[2H]C([2H])([2H])N(CC(=O)OCC(C)(C)C)C(=N)NC(=O)CCCCCCCCCC [Compound 39] and report
[A] 6.4

[Q] Note, next up: Cl.[2H]C([2H])([2H])N(CC(=O)OC(C)C)C(=N)NC(=O)CCCCCCCCCCCC [Compound 10-HCl]
[A] 4.3

[Q] And then Cl.[2H]C([2H])([2H])N(CC(=O)OC(C)C)C(=N)NC(=O)CCCCCCC/C=C\CCCCCCCC [Compound 45] , what is it?
[A] 0.4
